# Test System: Serotonin 5HT7 receptors (Homo sapiens (Human), UniProt P34969)
# Sequence (P34969 whole entry): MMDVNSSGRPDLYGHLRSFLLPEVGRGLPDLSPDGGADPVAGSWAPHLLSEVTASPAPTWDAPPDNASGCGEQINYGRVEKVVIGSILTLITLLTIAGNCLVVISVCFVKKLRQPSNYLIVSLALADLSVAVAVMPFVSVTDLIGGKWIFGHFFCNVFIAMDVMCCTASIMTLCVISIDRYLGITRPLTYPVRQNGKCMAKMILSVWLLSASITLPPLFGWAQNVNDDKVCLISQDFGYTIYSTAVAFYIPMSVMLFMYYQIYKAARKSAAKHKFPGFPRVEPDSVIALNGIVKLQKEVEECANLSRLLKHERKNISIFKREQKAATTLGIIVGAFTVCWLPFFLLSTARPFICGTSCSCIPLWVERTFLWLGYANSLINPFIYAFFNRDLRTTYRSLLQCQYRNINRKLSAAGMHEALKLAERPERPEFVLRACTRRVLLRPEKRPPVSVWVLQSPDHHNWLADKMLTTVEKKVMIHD
# Test: Radiolabel Binding Studies for Serotonin 5HT7 receptors;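 note: displacement of a tritiated radioligand from membranes of stably transfected cells carrying recombinant 5-HT7 receptor, with filter-bound radioactivity measured by scintillation counting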
# Experimental Conditions: read-out: 5-HT7 % inhib @ 10 uM
Reported inhibition at 10 µM values for a set of compounds
Express the result in % but write the number alone.

Here are 10 compounds together with their reported answers.
>>> df
                                   compound  unit_of_measure  endpoint_value
0  CC(C)c1cccc(C(C)C)c1N1CCN(CCC2CC3(CCCC3)C(=O)O2)CC1 (centres unmarked) [Entry 41]                %            25.2
1  N#Cc1ccc(N2CCN(CCC3CC4(CCCCC4)C(=O)O3)CC2)cc1 (centres unmarked) [Entry 33]                %            83.4
2  O=C1OC(CCN2CCN(c3ccc(Cl)cn3)CC2)CC12CCCCC2 (centres unmarked) [Entry 36]                %            96.7
3  O=C1OC(CCN2CCN(c3ccccc3N3CCOCC3)CC2)CC12CCCC2 (centres unmarked) [Entry 42]                %            97.2
4  CCC1(CC)CC(CCN2CCN(C(c3ccccc3)c3ccccc3)CC2)OC1=O (centres unmarked) [Entry 15]                %            58.4
5  CCC1(CC)CC(CCN2CCc3ccccc3C2)OC1=O (centres unmarked) [Entry 18]                %              82
6  CCC1(CC)CC(CCN2CCN(c3ccccn3)CC2)OC1=O (centres unmarked) [Entry 9]                %             101
7  CC(C)c1ccccc1N1CCN(CCC2CC3(CCCC3)C(=O)O2)CC1 (centres unmarked) [Entry 39]                %            96.1
8  CCC1(CC)CC(CCN2CCN(C3CCCCC3)CC2)OC1=O (centres unmarked) [Entry 13]                %            82.5
9  COc1ccc(N2CCN(CCC3CC4(CCCCC4)C(=O)O3)CC2)cc1 (centres unmarked) [Entry 20]                %            78.1

Please examine the following record next.
(Q) State the recorded inhibition at 10 µM for this entry: O=C1OC(CCN2CCN(c3ccc(C(F)(F)F)cc3)CC2)CC12CCCCC2 (centres unmarked) [Entry 29]
(A) 96
